Below is a list of entries, each paired with its recorded switch fluorescence ratio value.
Test system: ATP;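 note: ATP exposure 15 min at 22 °C before imaging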
Assay Method Text: switch fluorescence ratio, 500 uM ATP over buffer (Cy3 cluster intensity, sum of 5 cycles each) (fold (ratio)); higher = stronger signal-on switching upon ATP binding; sequences stand for … in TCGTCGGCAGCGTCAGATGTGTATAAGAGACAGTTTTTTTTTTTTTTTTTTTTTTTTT…TC
Experimental Parameters: aptamer strand: ATP DNA aptamer (quencher-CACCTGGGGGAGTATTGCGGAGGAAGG + anchor), 100 nM annealed; ATP concentration: 500 uM
Please give only the number in your answer, with no unit.

Guide cases for switch fluorescence ratio, answers given:
- AATGCTTTGG: 1.01
- GATGCTCGAG: 1
- CGCATGTTTT: 1.06
- AGATCTTCTT: 0.987

Exercise: Item under review: `TCAAGCTCAT` . Reported switch fluorescence ratio?
Solution: 0.974

Exercise: I have this sequence here, `AGGGCAGAGG` , and I need its recorded switch fluorescence ratio.
Solution: 0.986

Exercise: Item `TTTTTTGACC` has what recorded switch fluorescence ratio?
Solution: 1.02

Exercise: For the sequence `GTGCAAAATG` , what switch fluorescence ratio is on record?
Solution: 1.03

Exercise: For the sequence shown here, `GGGCAAGAGC` , give the reported switch fluorescence ratio.
Solution: 1.04

Exercise: Field request: switch fluorescence ratio | item: `GGACATATTT`
Solution: 1.03
